Data origin: patent US20230381333A1

Measured In vitro activity compared to native-type peptide (%), vs GLP-1 values are reported for all entries that follow.
- study_system: human GLP-1 receptor (human, UniProt P43220 24-463)
- protocol_summary: cell-based or functional assay
Bridge positions count the residues as written; N and C are the ends. Square brackets hold non-standard residues; d marks the D form. Ends that are not written are not given here. * marks the point of attachment. Acetyl(2-(4-imidazolyl)) = O=C(Cc1c[nH]cn1)*; Aib = CC(C)(N)C(=O)O
Provide only the numeric value, understood in %.

A selection of reference data follows.
H[Aib]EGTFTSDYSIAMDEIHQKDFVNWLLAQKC (bridge 16-20) [triple agonist of SEQ ID NO: 79] : 41.5
HGQGTFTSDCSKYMDGQAAQDFVAWLLAGGPSSGAPPPS [triple agonist of SEQ ID NO: 45] : 6.6
{Acetyl(2-(4-imidazolyl))}-[Aib]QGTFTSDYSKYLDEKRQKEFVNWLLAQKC (bridge 15-19) [triple agonist of SEQ ID NO: 93] : 5.7
H[Aib]QGTFTSDYSKYLCEKRQKEFVQWLLNGGPSSGAPPPSG (bridge 16-20) [triple agonist of SEQ ID NO: 36] : 37.4
H[Aib]QGTFTSDVSKYLDGQAAQEFVAWLLAGGGPSSGAPPPSC [triple agonist of SEQ ID NO: 10] : 46

Indicate the recorded In vitro activity compared to native-type peptide (%), vs GLP-1 value for this binder: [Acetyl(2-(4-imidazolyl))]GQGTFTSDYSIQLDEIAVRDFVEWLKNGGPSSGAPPPSHG [triple agonist of SEQ ID NO: 14] 28

Item Y[Aib]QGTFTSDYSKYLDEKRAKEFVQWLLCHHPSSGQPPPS (bridge 16-20) [triple agonist of SEQ ID NO: 95] : provide In vitro activity compared to native-type peptide (%), vs GLP-1 2.1

Complete the entry with In vitro activity compared to native-type peptide (%), vs GLP-1 for H[Aib]QGTFTSDYSKYLDGQHAQCFVAWLLAGGGPSSGAPPPS [triple agonist of SEQ ID NO: 39] 13.9

Identify In vitro activity compared to native-type peptide (%), vs GLP-1 associated with the binder Y[Aib]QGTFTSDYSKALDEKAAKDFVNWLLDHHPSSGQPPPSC (bridge 16-20) [triple agonist of SEQ ID NO: 99] 20.9

Recall and state the measured In vitro activity compared to native-type peptide (%), vs GLP-1 for [Acetyl(2-(4-imidazolyl))][Aib]QGTFTSDYSICMDEIHQKDFVNWLLNTK (bridge 16-20) [triple agonist of SEQ ID NO: 49] . 29.8

Give recorded In vitro activity compared to native-type peptide (%), vs GLP-1. {Acetyl(2-(4-imidazolyl))}-[Aib]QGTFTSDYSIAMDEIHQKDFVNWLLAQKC (bridge 15-19) [triple agonist of SEQ ID NO: 92] 0.8

Report measured In vitro activity compared to native-type peptide (%), vs GLP-1; entry is H[Aib]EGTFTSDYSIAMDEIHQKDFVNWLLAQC (bridge 16-20) [triple agonist of SEQ ID NO: 53] 161

Kindly indicate its recorded In vitro activity compared to native-type peptide (%), vs GLP-1. Item: {Acetyl(2-(4-imidazolyl))}-[Aib]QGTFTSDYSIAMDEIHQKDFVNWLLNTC (bridge 15-19) [triple agonist of SEQ ID NO: 87] 0.9
